# assay.remarks: nuclear p53 accumulation, HPV+ cells – imaging, p53-positive nuclei imaging, 24 h, 48 h (AID 1508601)
# experimental.conditions: 24/48 h, measured here: cell number at 24 h, Library stock concentration: 3.33 mM
In all, about 5,700 compounds went through this assay and about 85 (1%) were called active. The sample as a whole holds a higher share of actives than the screen did.
compounds and their reported nuclei count, normalised

compound: Cc1[nH]c2ccccc2c1CCNC(=O)c1cccs1
nuclei count, normalised: 115%

compound: Cc1cc(OCc2nnc(SC3CCCC3)n2-c2cccnc2)ccc1-c1ccc(S(C)(=O)=O)cc1
nuclei count, normalised: 78.3%

Query: Which nuclei count, normalised value is on record for `CN(C)Cc1ccc(S(=O)(=O)n2ccc(C=CC(=O)NO)c2)cc1` ?
Response: 86.4%

Query: Which nuclei count, normalised value is on record for CC(C)CC(NC(=O)CNC(=O)c1cc(Cl)ccc1Cl)B1OC(=O)CC(CC(=O)O)(C(=O)O)O1 (stereo not drawn) ?
Response: 46.4%

Query: Which nuclei count, normalised value is on record for CC(C)CC(NC(=O)C(CCc1ccccc1)NC(=O)CN1CCOCC1)C(=O)NC(Cc1ccccc1)C(=O)NC(CC(C)C)C(=O)[C@@]1(C)CO1 (stereo partly drawn) ?
Response: 36.4%

Query: Which nuclei count, normalised value is on record for `COc1ccc(Cn2ccc3ccc(C(=O)NO)cc32)cc1` ?
Response: 105%

Query: Which nuclei count, normalised value is on record for COCC(NC(=O)c1cnc(C)s1)C(=O)NC(COC)C(=O)NC(Cc1ccccc1)C(=O)C1(C)CO1 (stereo not drawn) ?
Response: 50.4%

---

# assay.remarks: nuclear p53 accumulation, HPV+ cells – imaging, p53-positive nuclei imaging, 24 h, 48 h (AID 1508601)
# experimental.conditions: 24/48 h, measured here: cell number at 48 h, Library stock concentration: 1.111 mM
In all, about 5,700 compounds went through this assay and about 85 (1%) were called active. What follows is part of a selection rich in actives, with near analogues and random picks from the rest.
compounds and their reported nuclei count, normalised
Numbers only here, please. The scale is %.

compound: CN(C)CCC(CSc1ccccc1)Nc1ccc(S(=O)(=O)NC(=O)c2ccc(N3CCN(Cc4ccccc4-c4ccc(Cl)cc4)CC3)cc2)cc1[N+](=O)[O-] (stereo not given)
reported.result: 112
--
compound: CC(=O)NC(CSC(=S)NSc1ccc(SNC(=S)SCC(NC(C)=O)C(=O)O)cc1)C(=O)O (stereo not given)
reported.result: 105
--
compound: OC(c1cc(C(F)(F)F)nc2c(C(F)(F)F)cccc12)[C@H]1CCCCN1 (stereo not given in full)
reported.result: 113
--
compound: CCOC(=O)c1sc(NC(=O)c2ccco2)c(SC#N)c1C
reported.result: 112
--
compound: N#CSc1cc(SC#N)c(N)nc1N
reported.result: 74.4
--
compound: Nc1ccn(C2OC(CO)C(O)C2F)c(=O)n1 (stereo not given)
reported.result: 46.2

Query: Which nuclei count, normalised value is on record for `COC(=O)C#Cc1ccc([N+](=O)[O-])cc1` ?
Response: 108

Query: Which nuclei count, normalised value is on record for NC(=O)c1ncn(C2OC(CO)C(O)C2O)c1O (stereo not given) ?
Response: 105

Query: Which nuclei count, normalised value is on record for Nc1ccn(C2C=C(CO)C(O)C2O)c(=O)n1 (stereo not given) ?
Response: 57.7

Query: Which nuclei count, normalised value is on record for CCCCCCCCCCCCCC=CC(O)C(CO)N(C)C (stereo not given) ?
Response: 112

---

# assayed.target: Cellular tumor antigen p53 (Homo sapiens) (UniProt P04637)
# Sequence (P04637 whole entry, looked up): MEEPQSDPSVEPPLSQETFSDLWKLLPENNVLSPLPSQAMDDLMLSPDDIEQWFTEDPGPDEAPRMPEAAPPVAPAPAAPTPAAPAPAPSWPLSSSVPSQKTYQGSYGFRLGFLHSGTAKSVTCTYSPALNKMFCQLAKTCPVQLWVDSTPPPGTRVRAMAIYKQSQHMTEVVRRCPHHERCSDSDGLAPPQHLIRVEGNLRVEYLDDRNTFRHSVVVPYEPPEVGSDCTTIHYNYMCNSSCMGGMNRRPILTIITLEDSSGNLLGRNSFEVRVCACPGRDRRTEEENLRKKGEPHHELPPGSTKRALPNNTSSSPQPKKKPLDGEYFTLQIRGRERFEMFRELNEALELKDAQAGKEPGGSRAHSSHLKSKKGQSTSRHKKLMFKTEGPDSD
# assay.remarks: nuclear p53 accumulation, HPV+ cells – imaging, p53-positive nuclei imaging, 24 h, 48 h (AID 1508601)
# experimental.conditions: 24/48 h, measured here: p53 positive nuclei at 24 h, Library stock concentration: 1.5 uM, stronger effect = higher value
The campaign covered roughly 5,700 compounds. About 85 (1%) were called active. Many of the other results were omitted from the sample, so actives are more common in it than they were.
compounds and their reported p53-positive nuclei, normalised
Numbers only here, please. The scale is %.

Examples with answers:
compound: N#CSc1cc(SC#N)c(N)nc1N
display.unit: %
p53-positive nuclei, normalised: -0.00152

compound: CC(=O)OC1C(=O)[C@]2(C)C(O)CC3OC[C@@]3(OC(C)=O)C2C(OC(=O)c2ccccc2)[C@]2(O)CC(OC(=O)C(O)C(NC(=O)c3ccccc3)c3ccccc3)C(C)=C1C2(C)C (some centres undefined)
display.unit: %
p53-positive nuclei, normalised: 0.807

compound: Nc1ccn(C2C=C(CO)C(O)C2O)c(=O)n1 (centres undefined)
display.unit: %
p53-positive nuclei, normalised: -0.093

Query: Which p53-positive nuclei, normalised value is on record for NC(=O)c1ncn(C2OC(CO)C(O)C2O)c1O (centres undefined) ?
Response: -0.0183

---

# assayed.target: Cellular tumor antigen p53 (Homo sapiens)
# assay.remarks: nuclear p53 accumulation, HPV+ cells – imaging, p53-positive nuclei imaging, 24 h, 48 h (AID 1508601)
# experimental.conditions: 24/48 h, Library stock concentration: 3.33 mM, stronger effect = higher value
Among all 5,700 compounds or so, about 85 (1%) were called active. The sample as a whole holds a higher share of actives than the screen did. Peptide text beside a SMILES is read from it.
property.label: p53-positive nuclei, normalised (%)
Numbers only here, please. The scale is %.

Examples with answers:
compound: CC(C)CC(CC(=O)NO)C(=O)NC(Cc1ccc2ccccc2c1)C(=O)NC(C)C(=O)NCCN (stereo not drawn)
assayed.target: Cellular tumor antigen p53 (Homo sapiens)
property.label: p53-positive nuclei, normalised
reported.result: 0.0444
//
compound: O=C(Cc1ccc(-c2ccc(OCCN3CCOCC3)cc2)cn1)NCc1ccccc1
assayed.target: Cellular tumor antigen p53 (Homo sapiens)
property.label: p53-positive nuclei, normalised
reported.result: 2.58
//
compound: COCC(NC(=O)c1cnc(C)s1)C(=O)NC(COC)C(=O)NC(Cc1ccccc1)C(=O)C1(C)CO1 (stereo not drawn)
assayed.target: Cellular tumor antigen p53 (Homo sapiens)
property.label: p53-positive nuclei, normalised
reported.result: 96.5
//
compound: CC(NC(=O)C(Cc1ccccc1)NC(=O)OCc1ccccc1)C(=O)CF (stereo not drawn)
assayed.target: Cellular tumor antigen p53 (Homo sapiens)
property.label: p53-positive nuclei, normalised
reported.result: -0.054
//
compound: COc1ccc(CC(NC(=O)C(C)NC(=O)CN2CCOCC2)C(=O)NC(Cc2ccccc2)C(=O)[C@]2(C)CO2)cc1 (stereo partly drawn)
assayed.target: Cellular tumor antigen p53 (Homo sapiens)
property.label: p53-positive nuclei, normalised
reported.result: 106

Query: Which p53-positive nuclei, normalised value is on record for COC(=O)C(Cc1ccccc1)NC(=O)C(N)CC(=O)O (stereo not drawn) (H-Asp-Phe-OMe; configuration not given here) ?
Response: -0.0669

Query: Which p53-positive nuclei, normalised value is on record for CC(C)CC(NC(=O)C(CCc1ccccc1)NC(=O)CN1CCOCC1)C(=O)NC(Cc1ccccc1)C(=O)NC(CC(C)C)C(=O)[C@@]1(C)CO1 (stereo partly drawn) ?
Response: 104

Query: Which p53-positive nuclei, normalised value is on record for `C#C[C@@]1(O)CC[C@H]2[C@@H]3CCc4cc(O)ccc4[C@@H]3CC[C@@]21C` ?
Response: 15.7

---

# assay.remarks: nuclear p53 accumulation, HPV+ cells – imaging, p53-positive nuclei imaging, 24 h, 48 h (AID 1508601)
# experimental.conditions: 24/48 h, measured here: cell number at 24 h, Library stock concentration: 370 uM
Screen size: about 5,700 compounds; about 85 (1%) were called active. Many of the other results were omitted from the sample, so actives are more common in it than they were.
molecules and their reported nuclei count, normalised
Numbers only here, please. The scale is %.

Examples with answers:
molecule: CN(NC(=O)CC(=O)NN(C)C(=S)c1ccccc1)C(=S)c1ccccc1
display.unit: %
reported.result: 60.9
--
molecule: C=C1C(=O)OC(CCCCCCCC)C1C(=O)O (stereo not given)
display.unit: %
reported.result: 116

Query: Which nuclei count, normalised value is on record for CCCCCCCCCCCCCC=CC(O)C(CO)N(C)C (stereo not given) ?
Response: 122

Query: Which nuclei count, normalised value is on record for CN(C)CCC(CSc1ccccc1)Nc1ccc(S(=O)(=O)NC(=O)c2ccc(N3CCN(Cc4ccccc4-c4ccc(Cl)cc4)CC3)cc2)cc1[N+](=O)[O-] (stereo not given) ?
Response: 117

Query: Which nuclei count, normalised value is on record for CC(=O)OC1C(=O)[C@]2(C)C(O)CC3OC[C@@]3(OC(C)=O)C2C(OC(=O)c2ccccc2)[C@]2(O)CC(OC(=O)C(O)C(NC(=O)c3ccccc3)c3ccccc3)C(C)=C1C2(C)C (stereo not given in full) ?
Response: 42

Query: Which nuclei count, normalised value is on record for `COc1ccc(N2C(=O)C(=Cc3ccc([N+](=O)[O-])s3)SC2=S)cc1` ?
Response: 69.2
